Tested on: Caenorhabditis elegans N2
test_protocol: mean nematode size ln(EXT) after 48 h, plate-adjusted (DMSO control set to 6) (ln(EXT), control-adjusted); higher = larger nematodes / less growth inhibition
condition_notes: 0.5 µM; exposure time 48 h
Where a name gives a salt, the structure may show the parent alone.
quantity_kind: mean nematode size ln(EXT) (ln)
Reply briefly: the number, and no unit.

Per the record, O=C(O)C(Cl)(Cl)Cl [Trichloroacetic acid] has mean nematode size ln(EXT) (ln) of 5.84

Per the record, CC(C)(C)C(O)/C(=C/c1ccc(Cl)cc1Cl)n1cncn1 (stereo not drawn) [Diniconazole] has mean nematode size ln(EXT) (ln) of 5.97

Per the record, CCCC1COC(Cn2cncn2)(c2ccc(Cl)cc2Cl)O1 (stereo not drawn) [Propiconazole] has mean nematode size ln(EXT) (ln) of 6.02

Per the record, O=P(Oc1ccccc1)(Oc1ccccc1)Oc1ccccc1 [Triphenyl phosphate] has mean nematode size ln(EXT) (ln) of 5.84

Per the record, CCCCOC(=O)CCCCC(=O)OCCCC [Dibutyl hexanedioate] has mean nematode size ln(EXT) (ln) of 5.86

Per the record, CNS(=O)(=O)c1cc(C(=O)N2CCC(CCN3C4CCC3CC(n3c(C)nc5ccccc53)C4)(c3cccc(F)c3)CC2)c(Cl)cc1F (stereo not drawn) has mean nematode size ln(EXT) (ln) of 5.68

Per the record, O=C(O)C(F)(F)C(F)(F)C(F)(F)C(F)(F)C(F)(F)C(F)(F)C(F)(F)F [Pentadecafluorooctanoic acid ammonium salt] has mean nematode size ln(EXT) (ln) of 5.88

Per the record, O=C(O)c1cc(/N=N/c2ccc(S(=O)(=O)Nc3ccccn3)cc2)ccc1O [Sulfasalazine] has mean nematode size ln(EXT) (ln) of 5.85

====

Field: mean nematode size ln(EXT) (ln). Provide a value for each of the compounds that follow.
Tested on: Caenorhabditis elegans N2
test_protocol: mean nematode size ln(EXT) after 48 h, plate-adjusted (DMSO control set to 6) (ln(EXT), control-adjusted); higher = larger nematodes / less growth inhibition
condition_notes: 1 µM; exposure time 48 h
Counter-ions that a name gives are not always drawn.

Per the record, Cc1c(-c2cccnc2)c2ccccc2n1CCCCC(=O)O [5-[2-methyl-3-(pyridin-3-yl)-1H-indol-1-yl]pentanoic acid] has mean nematode size ln(EXT) (ln) of 5.89

Per the record, `Fc1ccc(Oc2ccnc3cc(Cl)cc(Cl)c23)cc1` has mean nematode size ln(EXT) (ln) of 5.31

Per the record, CCCCOC(=O)CCCCCCCCC(=O)OCCCC [Dibutyl sebacate] has mean nematode size ln(EXT) (ln) of 5.87

Per the record, `Nc1ccc(-c2ccc(N)cc2)cc1` has mean nematode size ln(EXT) (ln) of 6.02

Per the record, `O=C(N[C@H]1CN2CCC1CC2)c1cc2ccoc2cn1` has mean nematode size ln(EXT) (ln) of 5.89

Per the record, O=S(=O)(O)C(F)(F)C(F)(F)C(F)(F)C(F)(F)C(F)(F)C(F)(F)C(F)(F)C(F)(F)F [Heptadecafluorooctanesulfonic acid potassium salt] has mean nematode size ln(EXT) (ln) of 5.57

Per the record, CC1(C)CC/C(=C\c2ccc(Cl)cc2)C1(O)Cn1cncn1 (stereo not drawn) has mean nematode size ln(EXT) (ln) of 5.72

Per the record, Nc1nc(N)c2nc(CNc3ccc(C(=O)NC(CCC(=O)O)C(=O)O)cc3)cnc2n1 (stereo not drawn) has mean nematode size ln(EXT) (ln) of 5.91
